// reported inhibition for each item listed
# TARGET UNDER TEST: Sulfonylurea receptor 1, Kir6.2 (Homo sapiens) (UniProt Q14654+Q09428)
# ASSAY DETAILS: Antiarrhythmic effect in hSUR1/hKir6.2 (pancreatic KATP channel) transfected in CHO cells at a dose of 10 uM
# Format: functional, cell-based
# TEST PARAMETERS: at 10 µM
Respond numerically; units are % and should not be typed.

QUERY: Tell us which inhibition value is on record for COc1ccc(Cl)cc1C(=O)NCCc1ccc(OC)c(S(=O)(=O)NC(=O)NC2CCCCC2)c1
RESULT: 81.7

QUERY: Indicate its recorded inhibition; the molecule in question is CNC(=O)NS(=O)(=O)c1cc2c(cc1OC)OCCC2CNC(=O)c1cc(Cl)ccc1OC (single isomer, unassigned; (+))
RESULT: 0.3

QUERY: Read off the recorded inhibition for CN/C(S)=N/S(=O)(=O)c1cc(CCNC(=O)c2cc(Cl)ccc2OC)ccc1-c1ccco1
RESULT: 82.7

QUERY: In one line, give reported inhibition of the entry COc1ccc(Cl)cc1C(=O)NCCc1ccc(OC)c(S(=O)(=O)NC(=O)N(C)C)c1 .
RESULT: 25

Others:
QUERY: Consider the molecule CN/C(S)=N/S(=O)(=O)c1cc(CCNC(=O)c2cc(Cl)ccc2OC)ccc1OCCOCCOC . State its measured inhibition.
RESULT: 96.4
